For Insulin-like growth factor 1 receptor (Homo sapiens), measured IC50 is reported for the entries below.
MEASURED PARAMETER: IC50 (nM)

{"SMILES TEXT": "COC(=O)[C@]1(O)C[C@@H]2O[C@@]1(C)n1c3ccccc3c3c4c(c5c6ccccc6n2c5c31)C(=O)NC4", "IC50 [nM]": 470}

(I) CCOC(=O)c1c(C=O)[nH]c(C(=O)NC(C)(C)C)c1CC
(II) CCOC(=O)c1c(C=O)[nH]c(C(=O)OC(C)(C)C)c1CC
Given the listed items, does I or II have the lesser reported IC50? Identify your pick by its label.
II
(II: 490 nM, I: 2600 nM)

---

Target: Insulin receptor (Homo sapiens, UniProt P06213)
Sequence (P06213 28-758 limits assumed): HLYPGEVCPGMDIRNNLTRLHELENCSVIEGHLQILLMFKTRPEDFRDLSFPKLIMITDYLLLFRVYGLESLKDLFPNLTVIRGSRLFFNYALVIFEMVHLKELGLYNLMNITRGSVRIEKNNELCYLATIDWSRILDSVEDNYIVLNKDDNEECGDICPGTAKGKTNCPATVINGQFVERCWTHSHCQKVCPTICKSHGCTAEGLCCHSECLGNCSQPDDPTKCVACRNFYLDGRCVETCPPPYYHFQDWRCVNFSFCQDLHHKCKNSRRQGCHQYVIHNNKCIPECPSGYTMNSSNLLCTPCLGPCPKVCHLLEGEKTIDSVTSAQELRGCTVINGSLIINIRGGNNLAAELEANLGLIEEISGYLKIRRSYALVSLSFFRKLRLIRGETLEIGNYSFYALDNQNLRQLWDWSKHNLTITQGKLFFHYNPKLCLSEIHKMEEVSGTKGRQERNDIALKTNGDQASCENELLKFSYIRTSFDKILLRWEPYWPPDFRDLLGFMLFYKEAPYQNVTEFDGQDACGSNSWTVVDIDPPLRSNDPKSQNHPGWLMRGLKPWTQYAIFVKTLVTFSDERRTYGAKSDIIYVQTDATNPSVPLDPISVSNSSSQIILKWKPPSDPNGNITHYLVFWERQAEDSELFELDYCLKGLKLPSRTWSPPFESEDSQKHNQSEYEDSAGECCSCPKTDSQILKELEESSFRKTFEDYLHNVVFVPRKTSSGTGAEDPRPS
Sequence (P06213 763-1382 limits assumed): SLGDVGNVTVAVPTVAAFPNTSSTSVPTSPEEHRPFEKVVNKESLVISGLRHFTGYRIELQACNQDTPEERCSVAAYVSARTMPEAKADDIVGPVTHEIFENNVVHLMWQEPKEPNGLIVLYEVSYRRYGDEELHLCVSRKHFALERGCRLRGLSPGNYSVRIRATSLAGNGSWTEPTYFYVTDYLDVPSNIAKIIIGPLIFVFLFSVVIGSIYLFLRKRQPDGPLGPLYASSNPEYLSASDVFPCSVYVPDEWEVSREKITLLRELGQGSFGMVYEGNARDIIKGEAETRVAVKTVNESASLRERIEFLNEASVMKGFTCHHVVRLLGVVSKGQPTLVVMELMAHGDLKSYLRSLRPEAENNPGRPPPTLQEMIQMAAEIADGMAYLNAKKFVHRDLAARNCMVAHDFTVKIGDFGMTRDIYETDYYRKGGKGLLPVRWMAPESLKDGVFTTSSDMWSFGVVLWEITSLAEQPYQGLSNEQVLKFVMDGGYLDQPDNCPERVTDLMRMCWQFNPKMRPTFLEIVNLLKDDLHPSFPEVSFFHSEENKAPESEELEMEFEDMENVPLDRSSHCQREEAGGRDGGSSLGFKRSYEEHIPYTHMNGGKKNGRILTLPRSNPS
Assay: Homogeneous Time-Resolved Fluorescence (HTRF) Assay
Details: pH 7.4; 22 °C
Protocol: The assay uses purified enzyme interacting with biotinylated peptide substrate.HTRF is based on the proximity of europium cryptate (donor fluorophore)-labeled antiphosphotyrosine and streptavidin labeled with APC (allophycocyanin), which have been brought together by a binding reaction. […] Relative fluorescence units were read on a Discovery plate reader (Packard). The IC50 values for inhibitors were determined by a four-parameter sigmoidal curve fit.
MEASURED PARAMETER: IC50 (µM)

As a guide, the following entries are already answered.
{"SMILES TEXT": "COC(=O)[C@]1(O)C[C@@H]2O[C@@]1(C)n1c3ccccc3c3c4c(c5c6ccccc6n2c5c31)C(=O)NC4", "IC50, µM": 0.21}
{"SMILES TEXT": "CCOC(=O)c1c(C=O)[nH]c(C(=O)NC(C)(C)C)c1CC", "IC50, µM": 17}

(A) CCOC(=O)c1[nH]c(C=O)c(C(=O)OCC)c1C
(B) CCOC(=O)c1[nH]c(C=O)c(C(=O)OCC)c1CC
# argmax over IC50 for candidates A and B Identify your pick by its label.
A
